assay-protocol: Selectivity index, ratio of EC50 for MT4 cells to EC50 for HIV1
Type: cell-based
experimental-parameters: human, mt4
readout-name: Selectivity index

[[record]]
molecule = "c1ccc(CSc2nnc(Cc3cccs3)n2Cc2ccccc2)cc1"
experimental_result = "Not Active"

[[record]]
molecule = "c1ccc(CCn2c(SCc3ccccc3)nnc2-c2cccs2)cc1"
experimental_result = "Not Active"

[[record]]
molecule = "CSc1nnc(-c2ccsc2)n1Cc1ccccc1"
experimental_result = "Not Active"

[[record]]
molecule = "c1ccc(CSc2nnc(-c3cccs3)n2-c2ccccc2)cc1"
experimental_result = "Not Active"


response.value for `Clc1cccc(Cl)c1CSc1nnc(-c2ccsc2)n1Cc1ccccc1` (field: Selectivity index) = Not Active

response.value for `CSc1nnc(-c2cccs2)n1Cc1ccccc1` (field: Selectivity index) = Not Active

====

assay-protocol: Selectivity index, ratio of EC50 for MT4 cells to EC50 for HIV1
Type: cell-based
experimental-parameters: human, mt4
readout-name: Selectivity index

Recorded Selectivity index, per entry:
[[record]]
molecule = "COc1ccc(Cn2c(SCc3ccccc3)nnc2-c2cccs2)cc1"
experimental_result = "Not Active"

[[record]]
molecule = "N#Cc1ccc(CSc2nnc(-c3ccsc3)n2Cc2ccccc2)cc1"
experimental_result = "Not Active"

[[record]]
molecule = "CCCCCCSc1nnc(-c2cccs2)n1Cc1ccccc1"
experimental_result = "Not Active"

[[record]]
molecule = "c1ccc(Cn2c(SCc3ccccn3)nnc2-c2ccsc2)cc1"
experimental_result = "Not Active"

[[record]]
molecule = "c1ccc(CCSc2nnc(-c3ccsc3)n2Cc2ccccc2)cc1"
experimental_result = "Not Active"


We now examine a further molecule.
response.value for `Cn1c(SCc2ccccc2)nnc1-c1cccs1` (field: Selectivity index) = Not Active

====

assay-protocol: Selectivity index, ratio of EC50 for MT4 cells to EC50 for HIV1
Type: cell-based
experimental-parameters: human, mt4
readout-name: Selectivity index

[[record]]
molecule = "Clc1ccc(Cn2c(SCc3ccccc3)nnc2-c2cccs2)cc1Cl"
experimental_result = "Not Active"

[[record]]
molecule = "c1ccc(CSc2nnc(-c3cc4ccccc4s3)n2Cc2ccccc2)cc1"
experimental_result = "Not Active"

[[record]]
molecule = "CCCCCCSc1nnc(-c2ccsc2)n1Cc1ccccc1"
experimental_result = "Not Active"


====

assay-protocol: Selectivity index, ratio of EC50 for MT4 cells to EC50 for HIV1
Type: cell-based
experimental-parameters: human, MT4 cells; read-out: Selectivity index
# selectivity ratio listing for each entry below

Recorded selectivity ratio, per entry:
[[record]]
molecule = "c1ccc(CSc2nnc(-c3ccsc3)n2Cc2ccccc2)cc1"
readout_name = "selectivity ratio"
experimental_result = 2

[[record]]
molecule = "Clc1ccccc1-c1nnc(SCc2ccccc2)n1Cc1ccccc1"
readout_name = "selectivity ratio"
experimental_result = 2.9

[[record]]
molecule = "c1ccc(CCSc2nnc(-c3cccs3)n2Cc2ccccc2)cc1"
readout_name = "selectivity ratio"
experimental_result = "≤ 1"

[[record]]
molecule = "c1ccc(Cn2c(SCc3ccncc3)nnc2-c2cccs2)cc1"
readout_name = "selectivity ratio"
experimental_result = 15

[[record]]
molecule = "COc1ccc(CSc2nnc(-c3cccs3)n2Cc2ccccc2)cc1"
readout_name = "selectivity ratio"
experimental_result = 3.8


response.value for `COc1ccc(CSc2nnc(-c3ccsc3)n2Cc2ccccc2)cc1` (field: selectivity ratio) = 1

response.value for `c1ccc(CSc2nnc(-c3ccccc3)n2Cc2ccccc2)cc1` (field: selectivity ratio) = 1.1

response.value for `Clc1cccc(CSc2nnc(-c3ccsc3)n2Cc2ccccc2)c1` (field: selectivity ratio) = 6.3
